meta.source: PubChem BioAssay (NCI)

- Procedure text: NCI Yeast Anticancer Drug Screen. Data for the mgt1 strain (AID 153)
- Particulars: S. cerevisiae mgt1 mutant growth inhibition; at 100.0 µM; hits give high values
- Procedure: Growth inhibition of yeast strains with defined genetic alterations is measured as a screen for potential anti-cancer activity. Selected strains with alterations in DNA damage repair or cell cycle control were exposed to compounds and growth inhibition was measured relative to vehicle treated controls. The strain used in this assay is mgt1
The panel holds about 79,000 compounds, 15% with a hit somewhere; the sample as a whole holds those more often.
Property name: growth inhibition (%)

[
  {
    "Compound": "CCN1CCC(O)(c2ccc(Oc3ccc(Cl)cc3)cc2)C(C(=O)c2ccc(Oc3ccc(Cl)cc3)cc2)C1 (centres undefined)",
    "Measured number": 59
  },
  {
    "Compound": "OC1(C#CI)CCCCC1",
    "Measured number": 99
  },
  {
    "Compound": "CSC(=S)N/N=C/c1ccccc1",
    "Measured number": 39
  },
  {
    "Compound": "COc1ccc(C(OCC2OC(n3cnc4c(=O)n(Cc5ccccc5[N+](=O)[O-])nnc43)C(O)C2O)(c2ccccc2)c2ccc(OC)cc2)cc1 (centres undefined)",
    "Measured number": 20
  }
]
